Measured pIC50 accompanies every entry in the list below.
- Tested System: C-RAF (Homo sapiens, UniProt P04049, Y340E/Y341E)
- Construct: His tag (implied by nickel chromatography) (cleaved yes); StrepII tag (cleaved yes); MEK1 substrate from E. coli
- Sequence (P04049 whole entry Y340E/Y341E): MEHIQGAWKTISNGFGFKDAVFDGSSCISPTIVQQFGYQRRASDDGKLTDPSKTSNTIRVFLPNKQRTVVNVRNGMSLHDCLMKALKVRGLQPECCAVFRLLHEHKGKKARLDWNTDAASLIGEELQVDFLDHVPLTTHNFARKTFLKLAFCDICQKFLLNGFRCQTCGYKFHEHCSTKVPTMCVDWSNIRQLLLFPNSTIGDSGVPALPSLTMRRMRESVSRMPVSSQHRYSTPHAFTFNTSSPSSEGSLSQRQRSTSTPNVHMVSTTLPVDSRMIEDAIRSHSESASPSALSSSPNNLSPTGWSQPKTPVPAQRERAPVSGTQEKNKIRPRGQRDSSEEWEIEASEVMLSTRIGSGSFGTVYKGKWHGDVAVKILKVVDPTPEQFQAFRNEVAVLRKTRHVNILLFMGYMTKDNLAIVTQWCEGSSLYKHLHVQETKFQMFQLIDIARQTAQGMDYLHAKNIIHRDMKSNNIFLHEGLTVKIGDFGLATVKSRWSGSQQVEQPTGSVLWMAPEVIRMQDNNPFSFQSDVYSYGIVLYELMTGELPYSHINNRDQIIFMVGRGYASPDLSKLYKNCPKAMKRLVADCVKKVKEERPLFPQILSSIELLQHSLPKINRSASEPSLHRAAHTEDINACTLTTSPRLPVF
- Sequence (P63104 whole entry partner): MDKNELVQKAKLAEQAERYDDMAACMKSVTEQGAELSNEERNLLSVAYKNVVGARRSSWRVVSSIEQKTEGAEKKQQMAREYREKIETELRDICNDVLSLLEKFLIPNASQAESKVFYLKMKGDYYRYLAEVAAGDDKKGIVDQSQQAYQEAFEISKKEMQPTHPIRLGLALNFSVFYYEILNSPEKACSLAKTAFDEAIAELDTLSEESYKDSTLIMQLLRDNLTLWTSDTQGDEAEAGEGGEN
- Protocol Description: In vitro Raf activity determination (Alpha Screen, biotinylated kinase-dead MEK1 substrate), C-Raf
- Condition Notes: c-Raf approximately 4 nM; ATP 1 μM; pre-incubation 60 minutes; reaction 1 hour at room temperature
pIC50: −log10 of the molar value.
Attribute Measured: pIC50

>>> measurement("Cc1ccc(NC(=O)c2ccnc(S(C)(=O)=O)c2)cc1-c1cnc(N2CC(C)(O)C2)c(C#N)c1")
8.97
>>> measurement("Cc1ncc(NC(=O)c2ccnc(C(F)(F)F)c2)cc1-c1cnc(OC2COC2)c(C#N)c1")
8.63
>>> measurement("Cc1ncc(NC(=O)c2cccc(C(F)F)c2)cc1-c1cnc(N2CCOCC2)c(C#N)c1")
9.93
>>> measurement("Cc1cc(CC(=O)Nc2cnc(C)c(-c3cnc(N(C)C)c(C#N)c3)c2)on1")
8.10
>>> measurement("Cc1ncc(NC(=O)c2ccnc(C(C)(C)C#N)c2)cc1-c1cnc(N2CCOCC2)c(C#N)c1")
9.08
>>> measurement("Cc1ncc(NC(=O)c2ccnc(C(F)F)c2)cc1-c1cnc(N2CCOCC2)c(C#N)c1")
9.82
>>> measurement("Cc1ncc(NC(=O)c2cccc(C(F)(F)F)c2)cc1-c1cnc(-c2ccncc2)c(C#N)c1")
9.41
>>> measurement("Cc1ccc(NC(=O)c2cnnc(C(C)(C)C#N)c2)cc1-c1cnc(N2CC(C)(O)C2)c(C#N)c1")
9.13
>>> measurement("Cc1ccc(NC(=O)c2ccnc(C3CC3)c2)cc1-c1cnc(N2CC(C)(O)C2)c(C#N)c1")
9.77
>>> measurement("Cc1cc(C(=O)Nc2cnc(C)c(-c3cnc(N(C)C)c(C#N)c3)c2)n(C)n1")
6.51
>>> measurement("COCCNc1ncc(-c2cc(NC(=O)c3ccnc(C(C)(C)C#N)c3)ccc2C)cc1C#N")
9.40
>>> measurement("COCCNc1ncc(-c2cc(NC(=O)c3ccnc(C(C)(C)C#N)c3)cnc2C)cc1C#N")
8.39
>>> measurement("Cc1ccc(NC(=O)c2cccc(C(F)F)c2)cc1-c1cnc(N2CCNCC2)c(C#N)c1")
9.90
>>> measurement("Cc1ncc(NC(=O)c2cccc(C(F)(F)F)c2)cc1-c1cnc(S(C)(=O)=O)c(C#N)c1")
8.55
>>> measurement("Cc1ccc(NC(=O)c2cccc(C(F)(F)F)c2)cc1-c1cnc(NC2CC2)c(C#N)c1")
9.49
>>> measurement("Cc1cc(C(=O)Nc2ccc(C)c(-c3cnc(N(C)C)c(C#N)c3)c2)n(C)n1")
7.42
>>> measurement("Cc1ccc(NC(=O)c2cc(C(C)(F)F)ccn2)cc1-c1cnc(N2CCOCC2)c(C#N)c1")
9.55
>>> measurement("Cc1ccc(NC(=O)c2cc(C(C)(C)N)cc(C(F)(F)F)c2)cc1-c1cnc(-c2cnn(C)c2)c(C#N)c1")
9.00
>>> measurement("Cc1ncc(NC(=O)c2ccnc(C(F)(F)F)c2)cc1-c1cnc(-c2c(C)nn(C)c2C)c(C#N)c1")
8.45
>>> measurement("Cc1ccc(NC(=O)c2ccnc(C(F)F)c2)cc1-c1cnc(N2CCOCC2)c(C#N)c1")
10.17
>>> measurement("Cc1ncc(NC(=O)c2ccnc(C3CC3)c2)cc1-c1cnc(C2CCOCC2)c(C#N)c1")
9.13
>>> measurement("Cc1ccc(NC(=O)c2cc(C(C)(C)F)ccn2)cc1-c1cnc(N2CC(C)(O)C2)c(C#N)c1")
9.06
>>> measurement("Cc1ncc(NC(=O)c2ccnc(C(C)(C)C#N)c2)cc1-c1cnc(N)c(C#N)c1")
8.74
>>> measurement("Cc1ccc(NC(=O)c2cccc(C(F)(F)F)c2)cc1-c1cnc(NC(C)C)c(C#N)c1")
9.41
>>> measurement("Cc1ccc(NC(=O)c2ccnc(S(C)(=O)=O)c2)cc1-c1cnc(N2CCNCC2)c(C#N)c1")
9.15
>>> measurement("Cc1ncc(NC(=O)c2cc(C(F)(F)F)nn2C)cc1-c1cnc(N(C)C)c(C#N)c1")
6.71
>>> measurement("CCC(F)(F)c1cc(C(=O)Nc2cnc(C)c(-c3cnc(N4CC(C)(O)C4)c(C#N)c3)c2)ccn1")
8.94
>>> measurement("Cc1cn(-c2ncc(-c3cc(NC(=O)c4ccnc(C(C)(C)C#N)c4)cnc3C)cc2C#N)cn1")
8.29
>>> measurement("Cc1ncc(NC(=O)c2ccnc(C3(C#N)CC3)c2)cc1-c1cnc(C2CCOCC2)c(C#N)c1")
9.14
>>> measurement("Cc1ccc(NC(=O)c2ccnc(C(C)(C)C#N)c2)cc1-c1cnc(C2CCOCC2)c(C#N)c1")
9.32
>>> measurement("Cc1ncc(NC(=O)c2ccnc(C(C)(C)C#N)c2)cc1-c1cnc(N2C[C@H]3C[C@@H]2CO3)c(C#N)c1")
8.68
